Test system: CAKI-1 renal
Assay: NCI tumour cell line growth inhibition, 48 h
Below is a list of entries, each paired with its recorded TGI value.

>  <molecule>
O=C1C(Cl)=C(Nc2cccc(O)c2)C(=O)N1c1cccc(Cl)c1Cl

>  <TGI>
20.2 µM

$$$$

Input CCCCOC(=O)C1CN2C(=NC1(C(F)(F)F)C(F)(F)F)Sc1ccccc12 (stereo not drawn) . Output TGI: > 100 µM

* * *

Tested on: IGROV1 ovarian
Assay: NCI tumour cell line growth inhibition, 48 h
measure name: TGI

Below are worked cases with known answers.
>  <compound>
CC(=O)OC1COC(Nn2c(=O)[nH]c3ccccc3c2=O)C(OC(C)=O)C1OC(C)=O (configuration not stated)

>  <TGI>
> 100 µM

$$$$
>  <compound>
CCOC(=O)NC(=O)c1cn(CCSCCOC(=O)NCCCCCCNC(=O)OCCSCCn2cc(C(=O)NC(=O)OCC)c(=O)[nH]c2=O)c(=O)[nH]c1=O

>  <TGI>
> 100 µM

$$$$
>  <compound>
CC(C)[C@@H]1CC[C@@H]2[C@@H]1[C@H](OC(=O)/C=C/c1ccccc1)[C@]1(C(C)C)C[C@@H](OC(=O)CO)[C@@]2(C)O1

>  <TGI>
12.5 µM

$$$$
>  <compound>
CCC/C(=N\NC(=O)c1cc2ccccc2cc1O)C(CC)C(=O)CCC(=O)N(Cc1ccccc1)Cc1ccccc1 (configuration not stated)

>  <TGI>
> 100 µM

$$$$

Input `Cc1nc2c(ncn2CCO)c(=O)[nH]1` . Output TGI: > 100 µM

The compound identified as `O=C1c2ccccc2C(=O)c2c1ccc1c2OCO1` registered its TGI at > 100 µM

Record N#CC(c1cc(Cl)ncn1)c1nc2ccccc2s1 (configuration not stated) , field TGI: 22 µM

Lab note: measured TGI of COC(=O)CCC(=O)c1ccc2c(c1)CC1(C2)Cc2ccc3c(c2C1)CCCC3=O (configuration not stated) was > 100 µM

Record `COc1ccc(-c2nnc(CCCCCCCCc3nnc(-c4ccc(OC)cc4)o3)o2)cc1` . Reported TGI: > 100 µM

* * *

System: RPMI-8226 leukemia
Assay: NCI tumour cell line growth inhibition, 48 h
We begin with a simple list: items and their reported TGI.

Take a look at these entries with their results.
>  <compound>
CC/C=C\C/C=C\C[C@H]1C/C=C2/C(=O)C=C[C@H]2C/C=C\CCC(=O)O1

>  <TGI>
7.45 µM

$$$$
>  <compound>
O=C1C(N2C(=O)c3ccccc3C2=O)CN1C(COCc1ccccc1)c1ccc(OCc2ccccc2)cc1 (stereo not drawn)

>  <TGI>
> 100 µM

$$$$
>  <compound>
Cc1nn(C)c2c1C(=O)N(C)CC(=O)N2C

>  <TGI>
> 100 µM

$$$$
>  <compound>
COc1cc(/C=C(\C#N)c2ccccn2)cc(Br)c1O

>  <TGI>
> 100 µM

$$$$
>  <compound>
Cc1cc2[nH]c3c(C#N)c(-c4ccccc4)c(CN4CCOCC4)c(=O)n3c2cc1C

>  <TGI>
> 100 µM

$$$$
>  <compound>
COc1ccc(-c2nocc2-c2cc(OC)c(OC)c(OC)c2)cc1

>  <TGI>
30.9 µM

$$$$
>  <compound>
COc1ccc(Cn2c(Br)c3c(c2-c2cc(OC)c(OC)c(OC)c2)CCc2sc(NC(C)=O)nc2-3)cc1

>  <TGI>
> 100 µM

$$$$
>  <compound>
COC(=O)C1CCC(=O)N1C(c1ccc2c(c1)OCO2)c1ccc2c(c1)OCO2 (stereo not drawn)

>  <TGI>
> 100 µM

$$$$

TGI reported for this compound `CC(=O)O[C@H]1[C@@H](N2CCN(C)CC2)C[C@H]2[C@@H]3CC=C4C[C@@H](N5CCCC5)CC[C@]4(C)[C@H]3CC[C@@]21C` : 44.2 µM

In plain terms, `CP(C)(=S)P(C)(C)=S` has a documented TGI of > 100 µM

The compound listed as `Cc1cc2c(c(N)c1C)C(=O)c1ccccc1C2=O` shows TGI equal to > 100 µM

Input `COc1cc([C@@H]2c3cc4c(c(O)c3C[C@H]3COC(=O)[C@@H]32)OCO4)cc(OC)c1O` . Output TGI: 49.1 µM

Input `CC(C)CC(=O)NS(=O)(=O)c1ccccc1` . Output TGI: > 100 µM

Item: `O=C1c2ccccc2C(=O)c2c1ccc1c2OCO1` | TGI: > 100 µM

Please fill in: TGI reported for CC1=C(C)C(=O)OC([C@](C)(O)[C@]2(O)CC[C@@]3(O)[C@@H]4C[C@H]5O[C@]56CC=CC(=O)[C@]6(C)[C@H]4CC[C@]23COC(=O)c2ccc(C)o2)C1 (stereo partly drawn) = > 33.2 µM

In plain terms, `COc1cc(-c2cc(CCC(=O)Nc3ccccc3[N+](=O)[O-])n(-c3ccc([N+](=O)[O-])cc3[N+](=O)[O-])n2)ccc1O` has a documented TGI of > 100 µM

The compound `COc1cc(C=O)c(-c2cc3c(cc2C=O)OCO3)c(OC)c1OC` showed TGI equal to > 290 µM

* * *

Test system: MDA-MB-435
Assay: NCI tumour cell line growth inhibition, 48 h
measure name: TGI

>  <molecule>
CCCCCC(/C=N/N)C(O)(C(F)(F)F)C(F)(F)F (stereo not drawn)

>  <TGI>
> 10 µM

$$$$
>  <molecule>
Oc1cc2ccccc2cc1-c1n[nH]c(=S)n1-c1ccc(Cl)cc1

>  <TGI>
> 100 µM

$$$$

Now look at this entry.
Field TGI (entry CC(NC(=O)C(N)CC(=O)O)NC(=O)N1CCCC1 (stereo not drawn) ) reads > 100 µM

* * *

Test system: PC-3 prostate
Test: NCI tumour cell line growth inhibition, 48 h
measure name: TGI

>  <molecule>
NC[C@@](O)(c1ccc(Cl)cc1)c1ccc(-c2cn[nH]c2)cc1

>  <TGI>
> 100 µM

$$$$

// field: TGI; key: CC([O-])C(=O)[O-].NCC1CCC1CN.[Pt+4] (stereo not drawn) ; value = > 10 µM

`COc1cccc(-n2c(N)c(-c3nc4cc(C(F)(F)F)ccc4s3)c3ccc([N+](=O)[O-])cc3c2=O)c1` yielded TGI of > 100 µM

TGI recorded for this molecule, `COc1cc2c3c(c4c5ccccc5[nH]c4c2c(OC)c1OC)C(=O)N(CCN1CCCCC1)C3=O` , is 2.64 µM

Notebook: `CN(C)/C=N/S(=O)(=O)c1nn2c(C=O)c(-c3ccc(-c4ccc([N+](=O)[O-])cc4)o3)nc2s1` , TGI read as 14.3 µM

Value of measured TGI for the entry `OCSc1nn(CO)c(=S)s1` : 59.6 µM

Item: `CCN(CC)C1=Nc2ccccc2-n2c(C)cnc2C1` | TGI: > 100 µM

* * *

TGI: recorded values
System: SF-539 CNS
Assay: NCI tumour cell line growth inhibition, 48 h

>  <molecule>
CCCCOC(=O)C1CN2C(=NC1(C(F)(F)F)C(F)(F)F)Sc1ccccc12 (stereo unspecified)

>  <result value>
> 100 µM

$$$$
>  <molecule>
Cc1ccc(NC(=O)c2nc(S(C)=O)oc2-c2ccc(F)cc2)cc1Nc1nccc(-c2cccnc2)n1 (stereo unspecified)

>  <result value>
3.71 µM

$$$$
>  <molecule>
CC(C)(O)[C@H](CCO)O[Si](c1ccccc1)(c1ccccc1)C(C)(C)C

>  <result value>
27.3 µM

$$$$
>  <molecule>
CCOC(=O)/C=C/c1ccccn1

>  <result value>
> 100 µM

$$$$
>  <molecule>
COC(=O)NN1C(=O)C(=P(c2ccccc2)(c2ccccc2)c2ccccc2)C(C(=O)OC)=C1C

>  <result value>
> 100 µM

$$$$

Let's switch to this molecule now.
So, COC(Cc1ccccc1)NC(C)=O (stereo unspecified) ? Its TGI was > 100 µM

* * *

Tested on: KM12 colon
Assay: NCI tumour cell line growth inhibition, 48 h
measure name: TGI

Example entries and their recorded answers appear below.
>  <molecule>
CNC1C(OC2C(OC3C(O)C(O)C(O)C(O)C3O)OC(C)C2(O)CO)OC(CO)C(O)C1O (stereo not given) (tested in a mixture with another compound)

>  <measurement target>
KM12 colon

>  <TGI>
> 100 µM

$$$$
>  <molecule>
CCOC(=O)C1(Cc2ccccc2)Cc2ccccc2C1=O (stereo not given)

>  <measurement target>
KM12 colon

>  <TGI>
> 100 µM

$$$$
>  <molecule>
COc1cc([C@@H]2c3cc4c(c(O)c3C[C@H]3COC(=O)[C@@H]32)OCO4)cc(OC)c1O

>  <measurement target>
KM12 colon

>  <TGI>
> 200 µM

$$$$
>  <molecule>
CC(C)[C@@H]1CC[C@@H]2[C@@H]1[C@H](OC(=O)/C=C/c1ccccc1)[C@]1(C(C)C)C[C@@H](OC(=O)CO)[C@@]2(C)O1

>  <measurement target>
KM12 colon

>  <TGI>
14.6 µM

$$$$
>  <molecule>
Cn1c(=O)c2nc(N3CCCCC3)cnc2n(C)c1=O

>  <measurement target>
KM12 colon

>  <TGI>
> 100 µM

$$$$

Entry `COc1cc(/C=C(\C#N)c2ccccn2)cc(Br)c1O` ; TGI = > 100 µM

TGI in this record for COc1ccc(CC2C3=C(CCCC3)CCN2C)cc1 (stereo not given) : > 100 µM

Form: molecule = `O=C(c1ccc2c3c(ccc(C(=O)C(F)(F)F)c13)CC2)C(F)(F)F` ; TGI = > 100 µM

Sure, the documented TGI for Cc1ccc(NC(=O)c2nc(S(C)=O)oc2-c2ccc(F)cc2)cc1Nc1nccc(-c2cccnc2)n1 (stereo not given) is 7.14 µM

Entry `Nc1ccc(N)c2c1C(=O)c1c(N)ccc(N)c1C2=O` ; TGI = > 100 µM

For reference, reported TGI for COc1ccc(C#CCC(OC2OC(CO)C(O)C(O)C2O)C(O)c2ccc(OC)c(OC)c2)cc1OC (stereo not given) stands at > 100 µM

Notebook: `C[n+]1ccc(-c2c3nc(c(-c4ccc5c(ccc[n+]5C)c4)c4ccc([nH]4)c(-c4cc[n+](C)cc4)c4nc(c(-c5ccc6c(ccc[n+]6C)c5)c5ccc2[nH]5)C=C4)C=C3)cc1` , TGI read as > 50 µM

Please fill in: TGI reported for `COC(=O)[C@@H]1C[C@]2(CC=C(C)C)c3ccccc3N(S(=O)(=O)c3ccccc3)[C@@H]2N1C(=O)OC` = > 100 µM
